All values here come from ChEMBL document CHEMBL1944527.

Biological target: Coagulation factor X (Homo sapiens, UniProt P00742)
Sequence (P00742 41-179 limits assumed): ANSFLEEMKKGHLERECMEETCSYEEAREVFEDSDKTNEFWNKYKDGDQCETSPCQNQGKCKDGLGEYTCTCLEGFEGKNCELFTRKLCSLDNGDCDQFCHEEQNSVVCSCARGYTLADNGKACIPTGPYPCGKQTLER
Sequence (P00742 235-488 limits assumed): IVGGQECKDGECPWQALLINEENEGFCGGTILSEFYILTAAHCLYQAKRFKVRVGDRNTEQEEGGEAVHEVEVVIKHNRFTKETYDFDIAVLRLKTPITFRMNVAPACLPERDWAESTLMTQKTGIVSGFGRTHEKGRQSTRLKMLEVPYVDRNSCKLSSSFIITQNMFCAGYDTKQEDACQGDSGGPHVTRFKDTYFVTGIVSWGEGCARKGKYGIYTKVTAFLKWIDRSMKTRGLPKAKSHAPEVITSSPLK
pIC50: −log10 of the molar value.
PARAMETER MEASURED: pIC50

Report its pIC50 with Coagulation factor X (Homo sapiens, UniProt P00742) as the test system: NCc1cccc(C2CCN(C(=O)c3ccc(C#Cc4ccccc4F)o3)CC2)c1.O=C(O)C(F)(F)F
< 4.00

====

Target or system Prothrombin (Homo sapiens); recorded quantity IC50.

NCc1cccc(C2CCN(C(=O)c3ccc(C#Cc4ccccn4)o3)CC2)c1.O=C(O)C(F)(F)F : > 100 µM

Report its IC50 with Prothrombin (Homo sapiens) as the test system: NCc1cccc(C2CCN(C(=O)c3ccc(C#Cc4ccccc4)o3)CC2)c1.O=C(O)C(F)(F)F
> 100 µM
